measurement-protocol: In vivo pharmacokinetic determination of compound (I), compound A and their metabolites in plasma
Parameters: species or system New Zealand White Rabbits
condition-set: both sexes, New Zealand White, rabbit, po, 10 mg/kg, single oral 10 mg/kg of compound (I), male and female rabbit
assay-metric: Tmax (min)

Example entries begin here.
| compound | Tmax (min) |
| --- | --- |
| Cn1cc(-c2ccc3nnc(C(F)(F)c4ccc5ncccc5c4)n3n2)cn1 [Compound A, reference compound] | 30 |
| [2H]c1ccc2cc(C(F)(F)c3nnc4ccc(-c5cnn(C)c5)nn34)ccc2n1 [Compound of formula (I)] | 30 |
| O=c1ccc2cc(C(F)(F)c3nnc4ccc(-c5cn[nH]c5)nn34)ccc2[nH]1 [Metabolite 1] | 138 |

[I] Cn1cc(-c2ccc3nnc(C(F)(F)c4ccc5[nH]c(=O)ccc5c4)n3n2)cn1 [Metabolite 2]
[II] [2H]c1ccc2cc(C(F)(F)c3nnc4ccc(-c5cn[nH]c5)nn34)ccc2n1 [N-desmethyl metabolite 3]
Request: // which entry reports the smaller Tmax, I or II ? Refer to your chosen entry by its label in the reply.
Response: I
(I: 48 min, II: 72 min)

* * *

measurement-protocol: In vivo pharmacokinetic determination of compound (I), compound A and their metabolites in plasma
Set-up: species or system New Zealand White Rabbits
condition-set: both sexes, New Zealand White, rabbit, po, 10 mg/kg, single oral 10 mg/kg of compound A, male and female rabbit
Experimental: In vivo pharmacokinetic determination of compound (I), compound A and their metabolites in New Zealand White Rabbits. Male New Zealand rabbits (Crl: KBL (NZW), Charles River, France) and female New Zealand rabbits (NZW INRA A1077, Centre Lago) were used. […] The formulations were stored at room temperature, protected from light and analysed quantitatively with LC-MS/MS on the day of preparation. […] The lower limit of quantification (LLOQ) for plasma was 1.00 ng/ml for all compounds. […]
assay-metric: AUC(0-t) (ng·h/mL)

Example entries begin here.
| molecule | recorded-measurement |
| --- | --- |
| FC(F)(c1ccc2ncccc2c1)c1nnc2ccc(-c3cn[nH]c3)nn12 [N-desmethyl metabolite 4] | 1490 |
| Cn1cc(-c2ccc3nnc(C(F)(F)c4ccc5ncccc5c4)n3n2)cn1 [Compound A, reference compound] | 8190 |

[A] O=c1ccc2cc(C(F)(F)c3nnc4ccc(-c5cn[nH]c5)nn34)ccc2[nH]1 [Metabolite 1]
[B] Cn1cc(-c2ccc3nnc(C(F)(F)c4ccc5[nH]c(=O)ccc5c4)n3n2)cn1 [Metabolite 2]
Request: Could you kindly indicate whether A or B has the higher AUC(0-t) value? Refer to your chosen entry by its label in the reply.
Response: A
(A: 934 ng·h/mL, B: 341 ng·h/mL)

* * *

measurement-protocol: In vivo pharmacokinetic determination of compound (I), compound A and their metabolites in plasma
Parameters: species or system New Zealand White Rabbits
condition-set: both sexes, New Zealand White, rabbit, po, 10 mg/kg, single oral 10 mg/kg of compound A, male and female rabbit
assay-metric: Tmax (h)

Example entries begin here.
| compound | Tmax (h) |
| --- | --- |
| Cn1cc(-c2ccc3nnc(C(F)(F)c4ccc5[nH]c(=O)ccc5c4)n3n2)cn1 [Metabolite 2] | 1 |
| Cn1cc(-c2ccc3nnc(C(F)(F)c4ccc5ncccc5c4)n3n2)cn1 [Compound A, reference compound] | 1 |

[a] FC(F)(c1ccc2ncccc2c1)c1nnc2ccc(-c3cn[nH]c3)nn12 [N-desmethyl metabolite 4]
[b] O=c1ccc2cc(C(F)(F)c3nnc4ccc(-c5cn[nH]c5)nn34)ccc2[nH]1 [Metabolite 1]
Request: Could you kindly indicate whether a or b has the higher Tmax value? Refer to your chosen entry by its label in the reply.
Response: b

* * *

measurement-protocol: Solubility of Metabolite 2
Type: physicochemical
condition-set: pH 7.33, aqueous buffer
assay-metric: solubility (µg/mL)
The response must be a number in µg/mL with no trailing unit.

Request: Give its solubility value. Item: Cn1cc(-c2ccc3nnc(C(F)(F)c4ccc5[nH]c(=O)ccc5c4)n3n2)cn1 [Metabolite 2]
Response: 2

* * *

measurement-protocol: In vivo pharmacokinetic determination of compound (I), compound A and their metabolites in plasma
Design: species or system New Zealand White Rabbits
condition-set: both sexes, New Zealand White, rabbit, po, 10 mg/kg, single oral 10 mg/kg of compound A, male and female rabbit
assay-metric: Cmax (µg/mL)

| compound | Cmax (µg/mL) |
| --- | --- |
| Cn1cc(-c2ccc3nnc(C(F)(F)c4ccc5ncccc5c4)n3n2)cn1 [Compound A, reference compound] | 1.83 |

[I] Cn1cc(-c2ccc3nnc(C(F)(F)c4ccc5[nH]c(=O)ccc5c4)n3n2)cn1 [Metabolite 2]
[II] FC(F)(c1ccc2ncccc2c1)c1nnc2ccc(-c3cn[nH]c3)nn12 [N-desmethyl metabolite 4]
[III] O=c1ccc2cc(C(F)(F)c3nnc4ccc(-c5cn[nH]c5)nn34)ccc2[nH]1 [Metabolite 1]
Request: Rank the 3 compounds: largest Cmax first, smallest last. // list labels; follow requested order
Response: II, III, I
(II: 0.299 µg/mL, III: 0.126 µg/mL, I: 0.0844 µg/mL)

* * *

measurement-protocol: In vivo pharmacokinetic determination of compound (I), compound A and their metabolites in plasma
Design: species or system New Zealand White Rabbits
condition-set: both sexes, New Zealand White, rabbit, po, 10 mg/kg, single oral 10 mg/kg of compound (I), male and female rabbit
assay-metric: AUC(0-inf) (ng·h/mL)

| compound | endpoint-unit | AUC(0-inf) |
| --- | --- | --- |
| [2H]c1ccc2cc(C(F)(F)c3nnc4ccc(-c5cn[nH]c5)nn34)ccc2n1 [N-desmethyl metabolite 3] | ng·h/mL | 2360 |
| O=c1ccc2cc(C(F)(F)c3nnc4ccc(-c5cn[nH]c5)nn34)ccc2[nH]1 [Metabolite 1] | ng·h/mL | 409 |
| Cn1cc(-c2ccc3nnc(C(F)(F)c4ccc5ncccc5c4)n3n2)cn1 [Compound A, reference compound] | ng·h/mL | 62.3 |

[A] [2H]c1ccc2cc(C(F)(F)c3nnc4ccc(-c5cnn(C)c5)nn34)ccc2n1
[B] Cn1cc(-c2ccc3nnc(C(F)(F)c4ccc5[nH]c(=O)ccc5c4)n3n2)cn1 [Metabolite 2]
Request: // which entry reports the smaller AUC(0-inf), A or B ? Refer to your chosen entry by its label in the reply.
Response: B
(B: 152 ng·h/mL, A: 8570 ng·h/mL)

* * *

measurement-protocol: In vivo pharmacokinetic determination of compound (I), compound A and their metabolites in plasma
Set-up: species or system New Zealand White Rabbits
condition-set: both sexes, New Zealand White, rabbit, po, 10 mg/kg, single oral 10 mg/kg of compound A, male and female rabbit, read-out: MRT (mean residence time)
assay-metric: MRT (h)

Example entries begin here.
| molecule | assay-metric | recorded-measurement |
| --- | --- | --- |
| FC(F)(c1ccc2ncccc2c1)c1nnc2ccc(-c3cn[nH]c3)nn12 [N-desmethyl metabolite 4] | MRT | 5.7 |
| Cn1cc(-c2ccc3nnc(C(F)(F)c4ccc5ncccc5c4)n3n2)cn1 [Compound A, reference compound] | MRT | 5.2 |

[A] O=c1ccc2cc(C(F)(F)c3nnc4ccc(-c5cn[nH]c5)nn34)ccc2[nH]1 [Metabolite 1]
[B] Cn1cc(-c2ccc3nnc(C(F)(F)c4ccc5[nH]c(=O)ccc5c4)n3n2)cn1 [Metabolite 2]
Request: Could you kindly indicate whether A or B has the higher MRT value? Refer to your chosen entry by its label in the reply.
Response: A

* * *

measurement-protocol: In vivo pharmacokinetic determination of compound (I), compound A and their metabolites in plasma
Design: species or system New Zealand White Rabbits
condition-set: both sexes, New Zealand White, rabbit, po, 10 mg/kg, single oral 10 mg/kg of compound (I), male and female rabbit
assay-metric: AUC(0-t) (ng·h/mL)

| compound | endpoint-unit | AUC(0-t) |
| --- | --- | --- |
| Cn1cc(-c2ccc3nnc(C(F)(F)c4ccc5ncccc5c4)n3n2)cn1 [Compound A, reference compound] | ng·h/mL | 53.7 |

[1] Cn1cc(-c2ccc3nnc(C(F)(F)c4ccc5[nH]c(=O)ccc5c4)n3n2)cn1 [Metabolite 2]
[2] [2H]c1ccc2cc(C(F)(F)c3nnc4ccc(-c5cnn(C)c5)nn34)ccc2n1
[3] [2H]c1ccc2cc(C(F)(F)c3nnc4ccc(-c5cn[nH]c5)nn34)ccc2n1 [N-desmethyl metabolite 3]
Request: Let's sort these by AUC(0-t), smallest first. Go ahead? // list labels; follow requested order
Response: 1, 3, 2

* * *

measurement-protocol: Solubility of Metabolite 2
Type: physicochemical
condition-set: pH 4.84, aqueous buffer
assay-metric: solubility (µg/mL)
The response must be a number in µg/mL with no trailing unit.

Request: Give its solubility value. Item: Cn1cc(-c2ccc3nnc(C(F)(F)c4ccc5[nH]c(=O)ccc5c4)n3n2)cn1 [Metabolite 2]
Response: 1

These data points were gathered from patent US10464939B2.
